Assay: protein stability index of a GFP-peptide fusion (GPS, HEK-293T) (PSI 1-6); higher = more stable;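 also: 24-mer peptide tiles fused after GFP, lentivirally expressed, FACS-sorted into six equal bins by GFP/DsRed ratio, decoded by Illumina sequencing, PSI is the read-weighted mean bin number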
Conditions: treatment: DMSO; c terminus: a fixed tail appended
Entries and their protein stability index
Format: numeric value only, no unit, no commentary.

Below: 4 sequences and their reported protein stability index.
>>> print(df.to_string())
                        sequence_text  reported_result
0     PKDIYSSFGFPRTVKHIDAALSEE [MMP1]              3.9
1   GAVTASKHSNSPPLVTPPQSPVSP [SMTNL2]             5.33
2   VEKLLREEAEGARWTSYRFSRVCR [TRIM35]             2.89
3  GELLATGDKGGRVVIFQREPESKN [PPP2R2C]             4.61

Reported protein stability index, sequence MGTSHGITRPSPRRSNSPDKFKRP [CCDC6] : ____
4.71

Reported protein stability index, sequence PGAGVPSGSGGTVAPATMGSARSH [ZBTB22] : ____
4.75

Reported protein stability index, sequence MVMIRGNSGLKPKDNEFTSKPWHW [POMT2] : ____
2.38

Reported protein stability index, sequence VCLPRSEDDDCDDDDDDDAQILPS [DRICH1] : ____
5.38

Reported protein stability index, sequence RRSTTDLRGTQFDYERGKGESTED [ZSWIM9] : ____
5.57

Reported protein stability index, sequence VGTRQNEELPCTCPLCTSDRGSCV [RHOBTB3] : ____
4.77

Reported protein stability index, sequence AVVASSVNSYYSSPAQQVPKNPAL [TOR1AIP2] : ____
3.51

Reported protein stability index, sequence RERFMECLMIGRDLVRLLQNVARI [INTS3] : ____
2.31

Reported protein stability index, sequence LNTRSQAPLLRWVLTLSFLVATVA [HMOX1] : ____
2.33

Reported protein stability index, sequence TINPSKRITAAEALKHPWISHRST [CAMK2A] : ____
3.06

Reported protein stability index, sequence GKKQEYLENRIQREIALAKKHGTQ [CHMP4C] : ____
3.92

Reported protein stability index, sequence ELLALETALGGQCVDRQEVAEITK [TCAP] : ____
4.15

Reported protein stability index, sequence QQLHARYVLNLLYETKKHLVQLPN [PPEF2] : ____
2.66

Reported protein stability index, sequence SNLSTRDASILTEMPTQPGKPLIP [NETO1] : ____
4.52

Reported protein stability index, sequence QRAPQLPTWWPLPTQVPAAEDYLT [SPAG8] : ____
3.12

Reported protein stability index, sequence PPGLPRVSAYVDTTADLDRKLSFS [SPATS1] : ____
3.79

Reported protein stability index, sequence LCLQLRDDIVSGRLPCSFVTLALL [EPB41L3] : ____
3.24

Reported protein stability index, sequence GNFPTMEVKPKDIIHVVKDQLIGQ [TENT5D] : ____
4.08

Reported protein stability index, sequence TWHHTKPLLPSDLRRTGCAALRIA [GAN] : ____
2.45

Reported protein stability index, sequence AEHEITELTATFTKFDRDGNRILD [PKD2L1] : ____
4.76

Reported protein stability index, sequence FFNTLHVGGTIRTCQKFLIQYNRR [POP5] : ____
2.02

Reported protein stability index, sequence ISVQELMGCLGVAKEDGKADTKKR [SMOC2] : ____
3.88

Reported protein stability index, sequence YDQLKAFLCGRALTSDLYAPMVAG [SLC25A39] : ____
2.61

Reported protein stability index, sequence MSPSMLTRNSPRGCRLPSISSTTC [SPATS1] : ____
2.97

Reported protein stability index, sequence QICRAQGLETLFSKAQELGGAGRE [ZSWIM9] : ____
3.64

Reported protein stability index, sequence GIVESIQIMKEGKATASEAVDCKW [NETO1] : ____
3.71

Reported protein stability index, sequence LRVGIPENAPIGTLLLRLNATDPD [PCDHGC5] : ____
2.92
